Assay: Pharmacokinetics assay in rats
Assay type: in vivo, SD rats
Conditions: both sexes, rat, in vivo, po; SD rats, intragastric, 50 mg/Kg (as free acid); read-out: Plasma Conc. Cmax
Description: The compounds of the present disclosure were administrated intragastrically to rats to determine the drug concentration in plasma at different time points by HPLC-UV. The pharmacokinetic behavior of the compounds of the present disclosure was studied and evaluated in rats. […] 40 μL of the supernatant was analyzed by HPLC-UV. […]
Endpoint: Cmax

{"columns": ["Smiles notation", "Result"],
 "data": [
  ["CC1=NN(c2ccc3c(c2)CCC3)C(=O)/C1=N\\Nc1cccc(-c2cccc(C(=O)O)c2)c1O.CCNCC.CCNCC", "83900 ng/mL"],
  ["CC1=NN(c2ccc3c(c2)CCC3)C(=O)/C1=N\\Nc1cccc(-c2csc(C(=O)O)c2)c1O.CCNCC.CCNCC", "46100 ng/mL"],
  ["CC1=NN(c2ccc3c(c2)CCC3)C(=O)/C1=N\\Nc1cccc(-c2ccc(C(=O)O)o2)c1O.CCNCC.CCNCC", "21500 ng/mL"]
]}
